target: KPC-2 (Klebsiella pneumoniae, UniProt Q9F663); assay: Inhibitory activity on SBL, fluorescent substrate FC-5; assay type: biochemical; conditions: read-out: Inhibitory activity on SBL KPC-2 (IC50 class)
Sequence (Q9F663 25-293 limits assumed): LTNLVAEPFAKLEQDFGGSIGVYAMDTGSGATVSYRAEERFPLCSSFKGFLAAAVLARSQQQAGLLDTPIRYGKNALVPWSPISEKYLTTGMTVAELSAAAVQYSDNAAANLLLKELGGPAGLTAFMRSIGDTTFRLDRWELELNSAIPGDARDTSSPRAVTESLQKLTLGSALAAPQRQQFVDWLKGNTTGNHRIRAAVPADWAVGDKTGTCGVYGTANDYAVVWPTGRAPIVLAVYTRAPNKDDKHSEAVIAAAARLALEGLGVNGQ
pIC50: −log10 of the molar value.
I'd appreciate it if you could supply pIC50 values for the items below.

For KPC-2 (Klebsiella pneumoniae, UniProt Q9F663), provide pIC50 of NCCN[C@H]1CC[C@H](CC(=O)N[C@H]2Cc3cccc(C(=O)O)c3OB2O)CC1 [Taniborbactam, reference compound] please. 6.00 to 8.00

Input `N#Cc1ccn(Cc2ccc3c(c2C(=O)O)OB(O)CC3)n1` > 8.00

Input `CC(C)(N)C#Cc1cnn(Cc2ccc3c(c2C(=O)O)OB(O)CC3)c1` > 8.00

Input `N=C(N)Nc1cnn(Cc2ccc3c(c2C(=O)O)OB(O)CC3)c1` 6.00 to 8.00
